test: osmotic lysis modulators in infected erythrocytes, primary screen, PSAC antagonist project, cell-based, P. falciparum Indochina, OD700, 3 h (AID 1156); conditions: higher = more signal, called active from +8 up or from −8 down
Label scheme for z-score: lower than -0.3 is not fulfilled, -0.3 and above is fulfilled.

State whether the measured z-score reaches -0.3, counting equality as reaching it, for `CCOC(=O)C1=C[C@@H](C(C)C)N(S(=O)(=O)c2ccc(C)cc2)[C@H]1c1ccc(C(C)C)cc1` fulfilled

Record `COc1ccc([Si](C)(C)[C@@H]2[C@@H](CC(=O)N(CCO)Cc3ccccc3)O[C@]3(C(=O)N(C)c4ccccc43)[C@H]2C)cc1` ; criterion: z-score no lower than -0.3. Met? not fulfilled

For this compound, is measured z-score -0.3 or higher? `CCOC(=O)C1=CC[C@@H](c2ccccc2Cl)N(S(=O)(=O)c2ccc(C)cc2)C1` not fulfilled

Check if z-score >= -0.3 (inclusive). Item: `CC(C)C[C@@H]1NC(=O)[C@H]2C[C@@H](C(=O)NCCCCCNC(=O)CS)[C@@H](c3cccc(OCCO)c3)N2C1=O` not fulfilled

Form field: z-score at least -0.3? Entry: `CC(C)NC(=O)[C@@H]1c2ccccc2C(=O)N(Cc2ccccc2Cl)[C@H]1c1ccc(CO)cc1` fulfilled

Dear colleague, could you confirm whether `COc1ccc(C#Cc2ccc3c(c2)[C@]2(C(=O)N3)[C@H](c3ccc(O)cc3)N3[C@H](c4ccccc4)[C@H](c4ccccc4)OC(=O)[C@H]3[C@@H]2C(=O)NC[C@H](O)c2ccccc2)cc1` has z-score at or above -0.3? fulfilled

Hi team, for `COc1ccc([Si](C)(C)[C@@H]2[C@@H](CC(=O)N3CCC[C@H]3CO)O[C@]3(C(=O)N(C)c4c(Br)cc(C)cc43)[C@H]2C)cc1` , is the recorded z-score at or above -0.3? fulfilled

Item `COC(=O)c1c(CC[C@@H](CO)NC(=O)N[C@@H](Cc2ccccc2)Cn2cc(C3(O)CCCCC3)nn2)oc(C(C)=O)c1C(=O)OC` with z-score of -0.3 or above? fulfilled

Does z-score meet or surpass -0.3 for CCCCCN1CC=CC23O[C@@H]4/C=C\CCC(C)OC(=O)C4[C@H]2C(=O)N(CCCCCO)[C@@H]3C1=O (some centres undefined) ? not fulfilled

Reported z-score reaches at least -0.3 for `O=C1O[C@@H](c2ccccc2)[C@@H](c2ccccc2)N2[C@@H](c3ccc(OCCO)cc3)[C@]3(C(=O)Nc4ccc(C#CC5=CCCCC5)cc43)[C@@H](C(=O)O)[C@H]12` ? not fulfilled

Check if z-score >= -0.3 (inclusive). Item: `O=C1N(CCS(=O)(=O)c2ccccc2)Cc2ccccc2C[C@]12N=C(c1ccc(OCCCO)cc1)O[C@@H]2c1ccccc1` fulfilled

Quick check, z-score >= -0.3? COC(=O)c1ccc(C23CC2(C(NP(=O)(c2ccccc2)c2ccccc2)c2ccccc2)C3)cc1 (centres undefined) fulfilled

Assess whether reported z-score for `O=C(O)[C@H]1C[C@H]2C(=O)NCC(=O)N2[C@H]1c1ccc(O)cc1` sits at -0.3 or higher. not fulfilled

Does `CCOC(=O)C[C@H]1[C@H](OC(=O)c2ccccc2-c2ccccc2)[C@@H](NC(=O)Cc2ccc(OC)cc2)c2cc(OCCCO)ccc2N1C(=O)c1ccccc1` have a reported z-score of at least -0.3? fulfilled

---

Assign composite z-score to each entry below.
system: wheat germ agglutinin (Triticum aestivum), Alexa647-labelled; experiment: wheat germ agglutinin binders on compound microarrays, profiling panel, artefact control for SMM control-protein annotation, biochemical, small-molecule microarray, 635/667 nm fluorescence (AID 1140); conditions: WGA-A647 binding, 635 nm fluorescence, higher = more signal;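 further: score merges 667 nm feature emission with signal to noise over triplicate slides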

Consider the molecule `COc1ccc(CCN2C(=O)[C@@]3(Cc4ccccc42)c2ccccc2C(=O)N(Cc2ccccc2Cl)[C@H]3c2ccc(CO)cc2)cc1` and give its measured composite z-score. -0.0043

// composite z-score lookup, key: CCCCCN1CC=CC23O[C@@H]4C=CCOC(=O)[C@@H]4[C@H]2C(=O)N(CCCO)[C@@H]3C1=O (some centres not stated) -0.895

Reported composite z-score for `[N-]=[N+]=Nc1ccccc1C[C@]1(C(=O)NCCN2CCOCC2)N=C(c2ccc(OCCCO)cc2)O[C@H]1c1ccccc1` : what is it? 0.309

Quick one: composite z-score of O=C1C2C=CC(C(O)c3ccc(B(O)O)cc3)N(Nc3ccccc3)C2C(=O)N1c1ccccc1 (configuration not stated) ? -0.0504

Quick one: composite z-score of `C=CCN1C(=O)[C@]2(O[C@H](CCO)[C@@H]([Si](C)(C)c3ccc(OC)cc3)[C@@H]2C)c2cc(NC(=O)[C@H](C)O)ccc21` ? 0.394

GET /values?readout=composite z-score&item= C=CCC(OC(C)=O)[C@@H]1[C@@H](N(Cc2ccc(-c3ccccc3)cc2)C(=O)Cc2ccc(F)cc2)c2cc(OCCCO)ccc2N1C(=O)c1ccc2ccccc2n1 (some centres not stated) 0.216

Reported composite z-score for `COCCOC(=O)N1C(=O)[C@@]2(c3ccccc31)[C@H](C(=O)NC[C@H](O)c1ccccc1)[C@H]1C(=O)O[C@H](c3ccccc3)[C@H](c3ccccc3)N1[C@@H]2c1ccc(OCCO)cc1` : what is it? 0.387

---

assay: small-molecule binders of probe aNOTCH2, primary screen, biochemical, small-molecule microarray, 635/667 nm fluorescence (AID 1121); conditions: higher = more signal;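 further: score merges feature fluorescence read at 667 nm with its signal to noise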
property: composite z-score
Keep it simple and answer with nothing but the number.

Dear colleague, I am looking for the recorded composite z-score of the following compound: `O=C(O)[C@@]1(Cc2ccccc2)N=C(c2ccc(OCCCO)cc2)O[C@H]1c1ccccc1` -0.147

Request the reported composite z-score associated with `O=C1N(CCS(=O)(=O)c2ccccc2)c2ccccc2C[C@@]12COC(c1ccc(OCCCO)cc1)=N2` 0.314

Which composite z-score is reported for this compound? `O=C1c2ccccc2[C@@]2(Cc3ccccc3N(Cc3ccccc3)C2=O)[C@H](c2ccc(CO)cc2)N1C1CCCCC1` -0.14

Give the measured composite z-score of N#Cc1ccc(NN2C(C(O)c3ccc([N+](=O)[O-])cc3)C=CC3C(=O)N(c4ccccc4)C(=O)C32)cc1 (centres undefined) . 0.181

---

test system: XIP peptide (Xip251-270) binding; assay: small-molecule binders of XIP peptide, primary screen, biochemical, small-molecule microarray, fluorescence 635/667 nm, 0.1 µg/mL protein (AID 1182); conditions: fluorescent protein binding, 635 nm, higher = more signal, called active from +8 up or from −8 down
Active and inactive are the calls of the source.
Would you kindly list composite z-score for each of these compounds?

Please tell me: composite z-score of `CC1=C2[C@@H](CCc3ccccc3)OB(O)C[C@@H]2n2c(=O)n(-c3ccccc3)c(=O)n2C1` , system XIP peptide (Xip251-270) binding? -0.105 (inactive)

Recorded composite z-score for `CC(C)Cc1ccc(CN2CC[C@@H](NS(=O)(=O)c3ccccc3)C2)cc1` with XIP peptide (Xip251-270) binding, please? -0.479 (inactive)

Query the reported composite z-score for XIP peptide (Xip251-270) binding; item: C=CCC(OC(C)=O)[C@@H]1[C@@H](N(Cc2ccc(-c3ccccc3)cc2)C(=O)Cc2ccc(F)cc2)c2cc(OCCCO)ccc2N1C(=O)c1ccc2ccccc2n1 (some centres undefined) -0.517 (inactive)

// map `COCCOC(=O)N1C(=O)[C@@]2(c3cc(C#CCC(C(=O)OC)C(=O)OC)ccc31)[C@H](C(=O)N1CCN(c3ncccn3)CC1)[C@H]1C(=O)O[C@H](c3ccccc3)[C@H](c3ccccc3)N1[C@@H]2c1ccc(OCCO)cc1` to recorded composite z-score (system: XIP peptide (Xip251-270) binding) 0.262 (inactive)

Request body: readout composite z-score, system XIP peptide (Xip251-270) binding, query `O=c1cccc(C=Cc2ccccc2)o1` . Return the value. -0.707 (inactive)

Form: Entry = `CN(C)C(=O)[C@]1(CCC(=O)OC(C)(C)C)N=C(c2ccc(OCCCO)cc2)O[C@@H]1c1ccccc1N=[N+]=[N-]` | System = XIP peptide (Xip251-270) binding | composite z-score = ____ 0.639 (inactive)

Query the reported composite z-score for XIP peptide (Xip251-270) binding; item: CS(=O)(=O)CCOC(=O)C1=CC(c2ccc(CO)cc2)=CC(C2CC2)N(Cc2cc3c(cc2Br)OCO3)C=C1C(=O)OCCS(C)(=O)=O (centres undefined) 0.0295 (inactive)

State its composite z-score on XIP peptide (Xip251-270) binding: `[N-]=[N+]=NCc1ccccc1[C@H]1OC(c2ccc(OCCCO)cc2)=N[C@@]1(CCS(=O)(=O)c1ccccc1)C(=O)N1CCOCC1` 1.53 (inactive)

Which composite z-score is reported with XIP peptide (Xip251-270) binding for this entry: `CCOC(=O)C[C@H]1[C@H](OC(=O)c2ccc(-c3ccccc3)cc2)[C@@H](NC(=O)c2ccc(-c3ccccc3)cc2)c2cc(OCCCO)ccc2N1C(=O)Cc1ccc(OC)cc1` ? -0.548 (inactive)

Report composite z-score for `O=C1O[C@H](c2ccccc2)[C@H](c2ccccc2)N2[C@H]1[C@@H](C(=O)O)[C@]1(C(=O)Nc3ccc(C#CC4=CCCCC4)cc31)[C@H]2c1ccc(OCCO)cc1` tested on XIP peptide (Xip251-270) binding. 0.4 (inactive)

// fetch XIP peptide (Xip251-270) binding composite z-score for `CC(C)NC(=O)[C@@]1(Cc2ccccc2I)c2ccccc2C(=O)N(Cc2ccccc2)[C@H]1c1ccc(CO)cc1` 0.257 (inactive)

Give XIP peptide (Xip251-270) binding composite z-score for `COc1ccc([Si](C)(C)[C@H]2[C@H](CCn3cc(CCO)nn3)O[C@@]3(C(=O)N(Cc4ccc(N5CCOC5=O)cc4)c4ccccc43)[C@@H]2C)cc1` 0.523 (inactive)

Field: composite z-score (XIP peptide (Xip251-270) binding). Entry: O=C1OCCC=C[C@H]2OC34C=CCN(c5ccc6ccccc6c5)C(=O)[C@H]3N(CCCCCO)C(=O)[C@@H]4C12 (some centres undefined) 0.427 (inactive)

Please tell me: composite z-score of COC(=O)C1=CC(CCCO)=CC(C2CC2)N(Cc2sc3ccccc3c2Cl)C=C1C(=O)OC (centres undefined) , system XIP peptide (Xip251-270) binding? 0.827 (inactive)
